assay-procedure: qHTS for Inhibitors of binding or entry into cells for Lassa Virus; also: nearly all actives have a fitted effect of over 50% in size
experimental-parameters: Lassa virus pseudotype entry inhibition, cell reporter; series mostly up to 37.9 µM
Among all 300,000 compounds or so, about 3,700 (1.2%) were called active. Not shown: some 20% with an inconclusive outcome. Calls follow the shape of the full dose curve; tested in HEK293 cells. The list comes from a sample in which actives are over-represented; it also holds close analogues and randomly drawn compounds.
Please answer using one outcome listed in yes (active), no (inactive)

compound	cat
O=C(CN1CCN(c2ccc(O)cc2)CC1)NC1CCCc2ccccc21 (stereo not drawn)	no
O=C(N/N=C/c1ccc(OC(=O)c2ccccc2Cl)cc1)c1ccc(O)cc1	no
CS(=O)(=O)N(CC(=O)N1CCc2ccccc2C1)c1ccc(Br)cc1	no
Cc1ccc(OCC(=O)N/N=C/c2ccncc2)cc1	no
COc1ccc(C(=O)COC(=O)c2c(C)noc2C)cc1Cl	no
CCOC(=O)C1=C(NC(=S)NC(=O)c2ccccc2)c2ccccc2CC1(C)C	yes

Kindly review the next compound as well.
Test call, this compound: `O=C(Nc1ccccc1)Oc1cccc2cccnc12`
no
